- stated_conditions: akkermansia muciniphila, 12 h, 2 µM
- Description: The drug is tested on Akkermansia muciniphila strain: ATCC BAA-835 for biotransformation. The drug concentrations were measured before and after a 12-h incubation by liquid-chromatography-coupled mass spectrometry (LC–MS)
endpoint: Bacterial Biotransformation

# compound, Bacterial Biotransformation
measured = [
    ("O=C1C(CC[S+]([O-])c2ccccc2)C(=O)N(c2ccccc2)N1c1ccccc1 (stereo not drawn) [SULFINPYRAZONE]", "Compound NOT metabolized"),
    ("Cc1ccnc2c1NC(=O)c1cccnc1N2C1CC1 [NEVIRAPINE]", "Compound NOT metabolized"),
    ("CCCCc1nc(Cl)c(CO)n1Cc1ccc(-c2ccccc2-c2nn[nH]n2)cc1 [LOSARTAN]", "Compound metabolized"),
    ("O=C(O)c1cc(/N=N/c2ccc(S(=O)(=O)Nc3ccccn3)cc2)ccc1O [SULFASALAZINE]", "Compound metabolized"),
    ("CCN(CC)CCNC(=O)c1ccc(NC(C)=O)cc1 [ACECAINIDE]", "Compound NOT metabolized"),
]

Prompt: What does the data say about its Bacterial Biotransformation? Entry: CS(=O)(=O)O.O.O.O.O=C1Cc2cc(CCN3CCN(c4nsc5ccccc45)CC3)c(Cl)cc2N1 [ZIPRASIDONE MESYLATE]
Response: Compound NOT metabolized

Prompt: Recorded Bacterial Biotransformation for O=C1[C@H](CC[C@H](O)c2ccc(F)cc2)[C@@H](c2ccc(O)cc2)N1c1ccc(F)cc1 [EZETIMIBE] , please?
Response: Compound NOT metabolized

Prompt: Reported Bacterial Biotransformation, compound COc1c(C)c2c(c(O)c1C/C=C(\C)CCC(=O)OCCN1CCOCC1)C(=O)OC2 [MYCOPHENOLATE MOFETIL] : ____
Response: Compound metabolized

====

- stated_conditions: bacteroides fragilis, 12 h, 2 µM
- Description: The drug is tested on Bacteroides fragilis strain: 3397 (T10) for biotransformation. The drug concentrations were measured before and after a 12-h incubation by liquid-chromatography-coupled mass spectrometry (LC–MS)
endpoint: Bacterial Biotransformation

Please review the following examples before continuing.
# molecule, reported_value
data = [
    ("CC(Oc1c(Cl)cccc1Cl)C1=NCCN1 (stereo unspecified) [LOFEXIDINE]", "Compound metabolized"),
    ("COc1ccc2[nH]c([S+]([O-])Cc3ncc(C)c(OC)c3C)nc2n1 (stereo unspecified) [TENATOPRAZOLE]", "Compound metabolized"),
    ("Fc1ccc([C@@H]2CCNC[C@H]2COc2ccc3c(c2)OCO3)cc1 [PAROXETINE]", "Compound NOT metabolized"),
    ("COc1ccccc1OCC(O)CN1CCN(CC(=O)Nc2c(C)cccc2C)CC1 (stereo unspecified) [RANOLAZINE]", "Compound NOT metabolized"),
    ("COCCc1ccc(OCC(O)CNC(C)C)cc1.COCCc1ccc(OCC(O)CNC(C)C)cc1.O=C(O)C(O)C(O)C(=O)O (stereo unspecified) [METOPROLOL TARTRATE]", "Compound NOT metabolized"),
]

Prompt: // Bacterial Biotransformation lookup, key: O=C([O-])C[C@H](O)C[C@H](O)/C=C/c1c(C2CC2)nc2ccccc2c1-c1ccc(F)cc1.O=C([O-])C[C@H](O)C[C@H](O)/C=C/c1c(C2CC2)nc2ccccc2c1-c1ccc(F)cc1.[Ca+2] [PITAVASTATIN CALCIUM]
Response: Compound NOT metabolized

Prompt: # query: Bacterial Biotransformation of entry CCN1CCCC1CNC(=O)c1cc(S(=O)(=O)CC)c(N)cc1OC (stereo unspecified) [AMISULPRIDE]
Response: Compound NOT metabolized

Prompt: # query: Bacterial Biotransformation of entry CN(C)CCc1c[nH]c2ccc(CS(=O)(=O)N3CCCC3)cc12 [ALMOTRIPTAN]
Response: Compound NOT metabolized

Prompt: For O=c1[nH]c2ccccc2n1CCCN1CCC(n2c(=O)[nH]c3cc(Cl)ccc32)CC1 [DOMPERIDONE] , what is its reported Bacterial Biotransformation?
Response: Compound NOT metabolized

Prompt: // query Bacterial Biotransformation value for entry Cc1nc(-c2ccc(OCC(C)C)c(C#N)c2)sc1C(=O)O [FEBUXOSTAT]
Response: Compound metabolized

====

- test_name: The drug is tested on Bacteroides uniformis strain: ATCC8492 for biotransformation. The drug concentrations were measured before and after a 12-h incubation by liquid-chromatography-coupled mass spectrometry (LC–MS)
- stated_conditions: 2 µM
endpoint: Bacterial Biotransformation

# compound, Bacterial Biotransformation
data = [
    ("O=P(O)(O)O.c1ccc(CN(CC2=NCCN2)c2ccccc2)cc1 [ANTAZOLINE PHOSPHATE]", "Compound NOT metabolized"),
    ("Cc1nc(Nc2ncc(C(=O)Nc3c(C)cccc3Cl)s2)cc(N2CCN(CCO)CC2)n1.O [DASATINIB]", "Compound NOT metabolized"),
    ("CCN(CC)C(=O)/C(C#N)=C/c1cc(O)c(O)c([N+](=O)[O-])c1 [ENTACAPONE]", "Compound metabolized"),
    ("COc1ccc([C@@H]2Sc3ccccc3N(CCN(C)C)C(=O)[C@@H]2OC(C)=O)cc1 [DILTIAZEM]", "Compound metabolized"),
]

Below: the item to evaluate.
Prompt: If you can, please state the reported Bacterial Biotransformation value of O=C(O)CCc1nc(-c2ccccc2)c(-c2ccccc2)o1 [OXAPROZIN] .
Response: Compound metabolized

====

- test_name: The drug is tested on Bacteroides fragilis strain: T(B)9 for biotransformation. The drug concentrations were measured before and after a 12-h incubation by liquid-chromatography-coupled mass spectrometry (LC–MS)
- stated_conditions: 2 µM
endpoint: Bacterial Biotransformation

# compound, endpoint, reported_value
rows = [
    ("CC(C)(C(=O)O)c1ccc(C(O)CCCN2CCC(C(O)(c3ccccc3)c3ccccc3)CC2)cc1 (centres undefined) [FEXOFENADINE]", "Bacterial Biotransformation", "Compound NOT metabolized"),
    ("COC(=O)[C@H](c1ccccc1Cl)N1CCc2sccc2C1.O=S(=O)(O)O [CLOPIDOGREL BISULFATE]", "Bacterial Biotransformation", "Compound metabolized"),
    ("CN1[C@@H]2CC[C@H]1C[C@@H](OC(=O)C(CO)c1ccccc1)C2 (some centres undefined)", "Bacterial Biotransformation", "Compound NOT metabolized"),
    ("CNCC[C@H](Oc1cccc2ccccc12)c1cccs1", "Bacterial Biotransformation", "Compound metabolized"),
]

====

- test_name: The drug is tested on Clostridium scindens strain: ATCC35704 for biotransformation. The drug concentrations were measured before and after a 12-h incubation by liquid-chromatography-coupled mass spectrometry (LC–MS)
- stated_conditions: 2 µM
endpoint: Bacterial Biotransformation

# compound, endpoint, reported_value
measured = [
    ("CC(=O)OCC(=O)[C@@]1(O)[C@@H](C)C[C@H]2[C@@H]3CCC4=CC(=O)C=C[C@]4(C)[C@@]3(F)[C@@H](O)C[C@@]21C [BETAMETHASONE ACETATE]", "Bacterial Biotransformation", "Compound NOT metabolized"),
    ("Br.CN1CCC[C@@H]1Cc1c[nH]c2ccc(CCS(=O)(=O)c3ccccc3)cc12 [ELETRIPTAN HYDROBROMIDE]", "Bacterial Biotransformation", "Compound NOT metabolized"),
    ("O=C1N=C([O-])NC1(c1ccccc1)c1ccccc1.[Na+] [PHENYTOIN SODIUM]", "Bacterial Biotransformation", "Compound NOT metabolized"),
]

====

- stated_conditions: bacteroides fragilis, 12 h, 2 µM
- Description: The drug is tested on Bacteroides fragilis strain: DS-208 for biotransformation. The drug concentrations were measured before and after a 12-h incubation by liquid-chromatography-coupled mass spectrometry (LC–MS)
endpoint: Bacterial Biotransformation

Worked cases, answers included:
# compound, endpoint, reported_value
data = [
    ("CCN(CC)CCOC(=O)C(Cc1cccc2ccccc12)CC1CCCO1.O=C(O)C(=O)O (stereo not given) [NAFRONYL OXALATE]", "Bacterial Biotransformation", "Compound NOT metabolized"),
    ("O=C(O)CCC(=O)O.O=C(O[C@H]1CN2CCC1CC2)N1CCc2ccccc2[C@@H]1c1ccccc1 [SOLIFENACIN SUCCINATE]", "Bacterial Biotransformation", "Compound NOT metabolized"),
    ("Cc1cc2c(cc1S(N)(=O)=O)S(=O)(=O)CCC2", "Bacterial Biotransformation", "Compound NOT metabolized"),
    ("COCCc1ccc(OCC(O)CNC(C)C)cc1.COCCc1ccc(OCC(O)CNC(C)C)cc1.O=C(O)C(O)C(O)C(=O)O (stereo not given) [METOPROLOL TARTRATE]", "Bacterial Biotransformation", "Compound NOT metabolized"),
    ("COc1ccc(Cc2nccc3cc(OC)c(OC)cc23)cc1OC [PAPAVERINE]", "Bacterial Biotransformation", "Compound NOT metabolized"),
    ("O=C1C(CC[S+]([O-])c2ccccc2)C(=O)N(c2ccccc2)N1c1ccccc1 (stereo not given) [SULFINPYRAZONE]", "Bacterial Biotransformation", "Compound metabolized"),
    ("NC(CO)(CO)CO.O=C(c1ccccc1)c1ccc2n1CCC2C(=O)O (stereo not given) [KETOROLAC TROMETHAMINE]", "Bacterial Biotransformation", "Compound metabolized"),
    ("CCOC(=O)[C@H](CCc1ccccc1)N[C@@H](C)C(=O)N1[C@H](C(=O)O)C[C@H]2CCCC[C@@H]21 [TRANDOLAPRIL]", "Bacterial Biotransformation", "Compound metabolized"),
    ("O=C1NCC2(CCN(CCc3ccccc3)CC2)O1 [FENSPIRIDE]", "Bacterial Biotransformation", "Compound metabolized"),
    ("CN1C[C@H](C(=O)N[C@]2(C)O[C@@]3(O)[C@@H]4CCCN4C(=O)[C@H](Cc4ccccc4)N3C2=O)C=C2c3cccc4[nH]cc(c34)C[C@H]21.CN1C[C@H](C(=O)N[C@]2(C)O[C@@]3(O)[C@@H]4CCCN4C(=O)[C@H](Cc4ccccc4)N3C2=O)C=C2c3cccc4[nH]cc(c34)C[C@H]21.O=C(O)C(O)C(O)C(=O)O [ERGOTAMINE TARTRATE]", "Bacterial Biotransformation", "Compound metabolized"),
]

Prompt: I have this compound here, CN[C@H]1CC[C@@H](c2ccc(Cl)c(Cl)c2)c2ccccc21 [SERTRALINE] , and I need its recorded Bacterial Biotransformation.
Response: Compound NOT metabolized

Prompt: Entry CN1CCN2c3ccccc3Cc3ccccc3C2C1 (stereo not given) [MIANSERIN] : reported Bacterial Biotransformation = ?
Response: Compound NOT metabolized
